# Tested on: BT-20;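 note: cell viability assay measuring suppression of growth in human BT-20 cells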
# TEST METHOD NOTES: cells
# Assay type: functional, cell-based, Homo sapiens
# CONDITION SUMMARY: bt-20
# Description: SANGER: Inhibition of human BT-20 cell growth in a cell viability assay.
MEASURED QUANTITY: IC50 (nM)

>>> print(df.to_string())
   residue_string  subject_of_test  unit_abbreviation  result_number
0       BLEOMYCIN            BT-20                 nM           2770

----------
# System: COLO-680N;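 note: cell viability assay used to measure inhibition of COLO-680N cell growth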
# TEST METHOD NOTES: cells
# Format: functional, cell-based, Homo sapiens
# CONDITION SUMMARY: colo-680n
# Description: SANGER: Inhibition of human COLO-680N cell growth in a cell viability assay.
pIC50: −log10 of the molar value.
MEASURED QUANTITY: pIC50

   residue_string  result_number
0       BLEOMYCIN           5.24

----------
# Tested on: LAN-6;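 note: growth inhibition of LAN-6 cells, determined with a cell viability assay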
# TEST METHOD NOTES: cells
# Type: functional, cell-based, Homo sapiens
# CONDITION SUMMARY: lan-6
# Description: SANGER: Inhibition of human LAN-6 cell growth in a cell viability assay.
pIC50: −log10 of the molar value.
MEASURED QUANTITY: pIC50

>>> print(df.to_string())
   residue_string  result_number
0       CISPLATIN           3.59
1       BLEOMYCIN           4.83

----------
Below is a list of entries, each paired with its recorded pIC50 value.
# Tested on: MDA-MB-134-VI
# TEST METHOD NOTES: cells
# Type: functional, cell-based, Homo sapiens
# CONDITION SUMMARY: Homo sapiens, MDA-MB-134-VI
# Description: SANGER: Inhibition of human MDA-MB-134-VI cell growth in a cell viability assay.
pIC50: −log10 of the molar value.

MOLECULE	pIC50
COc1cccc2c1C(=O)c1c(O)c3c(c(O)c1C2=O)C[C@@](O)(C(=O)CO)C[C@@H]3O[C@H]1C[C@H](N)[C@H](O)[C@H](C)O1	< 5.99
CC(=O)O[C@H]1C(=O)[C@@]2(C)[C@H]([C@H](OC(=O)c3ccccc3)[C@]3(O)C[C@H](OC(=O)[C@H](O)[C@@H](NC(=O)c4ccccc4)c4ccccc4)C(C)=C1C3(C)C)[C@]1(OC(C)=O)CO[C@@H]1C[C@@H]2O	< 6.99
CCN(CC)CCNC(=O)c1c(C)[nH]c(/C=C2\C(=O)Nc3ccc(F)cc32)c1C	< 5.10
COc1cc2ncn(-c3cc(OCc4ccccc4C(F)(F)F)c(C(N)=O)s3)c2cc1OC [GW843682X]	< 6.59
Cc1ccc(-c2c(C(=O)CCl)n(CCCO)c3ncnc(N)c23)cc1	< 5.40
N[C@@H](CSC(c1ccccc1)(c1ccccc1)c1ccccc1)C(=O)O	< 5.29
O=C(O)c1ccc(-c2c[nH]c3ncc(-c4ccccc4)cc23)cc1C1CCCC1	< 4.80
CC[C@H](CO)Nc1nc(NCc2ccccc2)c2ncn(C(C)C)c2n1	< 4.80
C=C(c1ccc(C(=O)O)cc1)c1cc2c(cc1C)C(C)(C)CCC2(C)C	< 5.10

----------
# Tested on: IST-MEL1;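 note: growth inhibition of the cell line, read out with a cell viability assay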
# TEST METHOD NOTES: cells
# Assay type: functional, cell-based, Homo sapiens
# CONDITION SUMMARY: Homo sapiens, IST-MEL1
# Description: SANGER: Inhibition of human IST-MEL1 cell growth in a cell viability assay.
Below is a list of entries, each paired with its recorded IC50 value.

SMILES DATA	IC50
Oc1ccc2ccccc2c1SSc1c(O)ccc2ccccc12	> 32000 nM
N#Cc1c(O)c2c(-c3ccc(-c4ccccc4O)cc3)csc2[nH]c1=O	> 1020 nM
CC[C@H](CO)Nc1nc(NCc2ccccc2)c2ncn(C(C)C)c2n1	> 16000 nM
Cc1cn(-c2cc(NC(=O)c3ccc(C)c(Nc4nccc(-c5cccnc5)n4)c3)cc(C(F)(F)F)c2)cn1	> 2000 nM
CCN(CC)CCNC(=O)c1c(C)[nH]c(/C=C2\C(=O)Nc3ccc(F)cc32)c1C	> 8000 nM
CC1(C)CNc2cc(NC(=O)c3cccnc3NCc3ccncc3)ccc21	> 2000 nM
CO[C@H]1C[C@@H]2CC[C@@H](C)[C@@](O)(O2)C(=O)C(=O)N2CCCC[C@H]2C(=O)O[C@H]([C@H](C)C[C@@H]2CC[C@@H](OC(=O)C(C)(CO)CO)[C@H](OC)C2)CC(=O)[C@H](C)/C=C(\C)[C@@H](O)[C@@H](OC)C(=O)[C@H](C)C[C@H](C)/C=C/C=C/C=C/1C	123 nM

----------
Below is a list of entries, each paired with its recorded IC50 value.
# Test system: NCI-H2107
# TEST METHOD NOTES: SANGER: Inhibition of human NCI-H2107 cell growth in a cell viability assay.
# Assay type: functional, cell-based

COMPOUND	SUBJECT OF TEST	IC50
COc1cc(N2CCN(C)CC2)ccc1Nc1ncc2c(n1)N(C)c1ccccc1C(=O)N2C	NCI-H2107	> 8000 nM
CC(=O)O[C@H]1C(=O)[C@@]2(C)[C@H]([C@H](OC(=O)c3ccccc3)[C@]3(O)C[C@H](OC(=O)[C@H](O)[C@@H](NC(=O)c4ccccc4)c4ccccc4)C(C)=C1C3(C)C)[C@]1(OC(C)=O)CO[C@@H]1C[C@@H]2O	NCI-H2107	> 102 nM
COc1cc2ncn(-c3cc(OCc4ccccc4C(F)(F)F)c(C(N)=O)s3)c2cc1OC [GW843682X]	NCI-H2107	> 256 nM
C#Cc1cccc(Nc2ncnc3cc(OCCOC)c(OCCOC)cc23)c1	NCI-H2107	> 2000 nM

----------
# Tested on: NCI-H1793;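 note: cell growth inhibition, read out by a cell viability assay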
# TEST METHOD NOTES: cells
# Type: functional, cell-based, Homo sapiens
# CONDITION SUMMARY: nci-h1793
# Description: SANGER: Inhibition of human NCI-H1793 cell growth in a cell viability assay.
pIC50: −log10 of the molar value.
MEASURED QUANTITY: pIC50

>>> df
   residue_string  subject_of_test  result_number
0       BLEOMYCIN        NCI-H1793           4.57

----------
# System: HCT-116
# TEST METHOD NOTES: cells
# Type: functional, cell-based, Homo sapiens
# CONDITION SUMMARY: Homo sapiens, HCT-116
# Description: SANGER: Inhibition of human HCT-116 cell growth in a cell viability assay.
Below is a list of entries, each paired with its recorded IC50 value.
MEASURED QUANTITY: IC50

>>> print(df.to_string())
                                   compound     result
0  CCN(CC)CCCCNc1ncc2cc(-c3cc(OC)cc(OC)c3)c(NC(=O)NC(C)(C)C)nc2n1     > 2 µM
1  C=C(c1ccc(C(=O)O)cc1)c1cc2c(cc1C)C(C)(C)CCC2(C)C     > 8 µM
2  Nc1ccn([C@@H]2O[C@H](CO)[C@@H](O)C2(F)F)c(=O)n1  0.0508 µM
3  CS(=O)(=O)c1ccc(C(=O)Nc2ccc(Cl)c(-c3ccccn3)c2)c(Cl)c1    > 10 µM
4  Nc1cccc2c1CN(C1CCC(=O)NC1=O)C2=O (stereo not given) [LENALIDOMIDE]     > 5 µM

----------
Below is a list of entries, each paired with its recorded pIC50 value.
# Tested on: SW1417
# TEST METHOD NOTES: cells
# Assay type: functional, cell-based, Homo sapiens
# CONDITION SUMMARY: Homo sapiens, SW1417
# Description: SANGER: Inhibition of human SW1417 cell growth in a cell viability assay.
pIC50: −log10 of the molar value.

MOLECULE	pIC50
CS(=O)(=O)c1ccc(C(=O)Nc2ccc(Cl)c(-c3ccccn3)c2)c(Cl)c1	< 5.00
CCN(CC)CCCCNc1ncc2cc(-c3cc(OC)cc(OC)c3)c(NC(=O)NC(C)(C)C)nc2n1	< 5.70
CCC/C=C/C=C/C(=O)O[C@H]1/C(=C/C(=O)OC)C[C@H]2C[C@H]([C@@H](C)O)OC(=O)C[C@H](O)C[C@@H]3C[C@H](OC(C)=O)C(C)(C)[C@](O)(C[C@@H]4C/C(=C/C(=O)OC)C[C@H](/C=C/C(C)(C)[C@]1(O)O2)O4)O3	< 8.10
CC1(C)CNc2cc(NC(=O)c3cccnc3NCc3ccncc3)ccc21	< 5.70
Nc1cccc2c1CN(C1CCC(=O)NC1=O)C2=O (configuration not stated) [LENALIDOMIDE]	< 5.30
Nc1ccn([C@@H]2O[C@H](CO)[C@@H](O)C2(F)F)c(=O)n1	< 5.99
Cc1cc([N+](=O)[O-])ccc1NS(=O)(=O)c1cc(Cl)ccc1Cl	4.94

----------
# Test system: DoTc2-4510
# TEST METHOD NOTES: cells
# Assay type: functional, cell-based, Homo sapiens
# CONDITION SUMMARY: Homo sapiens, DoTc2-4510
Counter-ions that a name gives are not always drawn.
MEASURED QUANTITY: IC50

>>> print(df.to_string())
                                   molecule  measured_quantity     result
0  Nc1cccc2c1CN(C1CCC(=O)NC1=O)C2=O (configuration not stated) [LENALIDOMIDE]               IC50  > 5000 nM
1  N#Cc1c(O)c2c(-c3ccc(-c4ccccc4O)cc3)csc2[nH]c1=O               IC50  > 1020 nM
2  COC1=CC(c2cc3ccccc3[nH]2)=N/C1=C\c1[nH]c(C)cc1C [OBATOCLAX MESYLATE]               IC50    33.9 nM
3  Cn1cnc2c(F)c(Nc3ccc(Br)cc3Cl)c(C(=O)NOCCO)cc21               IC50  > 4000 nM
4  Cc1cn(-c2cc(NC(=O)c3ccc(C)c(Nc4nccc(-c5cccnc5)n4)c3)cc(C(F)(F)F)c2)cn1               IC50  > 2000 nM
5  CC1(C)CNc2cc(NC(=O)c3cccnc3NCc3ccncc3)ccc21               IC50  > 2000 nM
6  C=C(c1ccc(C(=O)O)cc1)c1cc2c(cc1C)C(C)(C)CCC2(C)C               IC50  > 8000 nM
